All values here come from patent US6306860A.

Recorded inhibition at 0.1 µg/mL values for a group of molecules are listed next.
# study.system: HIV reverse transcriptase (Human immunodeficiency virus type 1 group M subtype B, UniProt P04585)
# Construct: purchased Boehringer Mannheim
# procedure.summary: In vitro inhibition test against HIV reverse transcriptase
# Format: biochemical
# protocol.conditions: 0.1 μg/ml; read-out: Inhibitory activity of HIV-RT (%)
// return numeric value only (unit: %, not printed)

CC(C)Nc1cccnc1N1CCN(C(=O)c2ccc(C(=O)NC(CO)CO)cn2)CC1 = 61
CC(C)Nc1cccnc1N1CCN(C(=O)c2ccc(C(=O)NC3CCCC3)cn2)CC1 = 25
CCNc1cccnc1N1CCN(C(=O)c2ccc(C(=O)NCCOC)cn2)CC1 = 52
COc1ccc(NC(=O)c2ccc(C(=O)N3CCN(c4ncccc4NC(C)C)CC3)nc2)cn1 = 48
Cc1cc(NC(=O)c2ccc(C(=O)N3CCN(c4ncccc4NC(C)C)CC3)nc2)no1 = 30

We now examine a further molecule.
Consider the molecule shown here: CCNc1cccnc1N1CCN(C(=O)c2ccc(C(=O)NC(C)C)cn2)CC1 What is its recorded inhibition at 0.1 µg/mL?
52

====

# study.system: HIV reverse transcriptase (Human immunodeficiency virus type 1 group M subtype B)
# Construct: purchased Boehringer Mannheim
# procedure.summary: In vitro inhibition test against HIV reverse transcriptase
# Type: biochemical
# protocol.conditions: 1 μg/ml; read-out: Inhibitory activity of HIV-RT (%)
Below, each of the compounds is paired with its reported inhibition at 1 µg/mL value.
The reply should be a number in %, with the unit left off.

CC(C)Nc1cccnc1N1CCN(C(=O)c2ccc(C(=O)NC3CCSC3=O)cn2)CC1 (centres unmarked) [Exam. 57] = 70

Given CC(C)Nc1cccnc1N1CCN(C(=O)c2ccc(C(=O)NCCN(C)C)cn2)CC1 [Exam. 62] , state its recorded inhibition at 1 µg/mL.
79

Given CC(C)NC(=O)c1ccc(C(=O)N2CCN(c3ncccc3NC(C)C)CC2)nc1 [Exam. 24] , state its recorded inhibition at 1 µg/mL.
66

Given the compound CC(C)Nc1cccnc1N1CCN(C(=O)c2ccc(C(=O)NCc3ccncc3)cn2)CC1 [Exam. 77] , what is its reported inhibition at 1 µg/mL?
79

====

# study.system: HBV polymerase (Hepatitis B virus genotype D subtype ayw, UniProt P03156)
# Construct: made in house; host or cells: E. coli
# Sequence (P03156 whole entry): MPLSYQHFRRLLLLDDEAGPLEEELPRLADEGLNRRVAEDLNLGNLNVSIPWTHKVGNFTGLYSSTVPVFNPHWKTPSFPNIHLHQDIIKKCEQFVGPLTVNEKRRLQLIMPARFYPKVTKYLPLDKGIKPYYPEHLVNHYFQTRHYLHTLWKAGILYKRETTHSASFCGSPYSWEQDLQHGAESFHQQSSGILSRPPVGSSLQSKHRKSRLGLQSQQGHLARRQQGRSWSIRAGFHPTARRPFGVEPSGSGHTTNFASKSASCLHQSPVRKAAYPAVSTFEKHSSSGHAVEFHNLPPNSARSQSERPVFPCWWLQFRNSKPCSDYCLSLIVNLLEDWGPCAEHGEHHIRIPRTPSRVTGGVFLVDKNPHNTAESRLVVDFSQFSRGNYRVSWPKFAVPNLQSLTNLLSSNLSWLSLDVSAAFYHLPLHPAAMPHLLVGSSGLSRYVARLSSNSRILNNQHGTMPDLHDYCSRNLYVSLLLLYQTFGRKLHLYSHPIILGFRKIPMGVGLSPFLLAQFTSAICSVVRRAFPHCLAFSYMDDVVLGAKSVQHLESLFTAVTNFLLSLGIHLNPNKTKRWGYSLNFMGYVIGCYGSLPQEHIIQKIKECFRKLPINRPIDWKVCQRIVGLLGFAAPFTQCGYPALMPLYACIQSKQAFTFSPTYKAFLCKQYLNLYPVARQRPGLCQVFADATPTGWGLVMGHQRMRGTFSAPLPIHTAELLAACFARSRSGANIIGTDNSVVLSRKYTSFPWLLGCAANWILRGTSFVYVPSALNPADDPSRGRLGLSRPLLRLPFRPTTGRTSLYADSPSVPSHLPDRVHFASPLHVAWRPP
# procedure.summary: Inhibitory activities against HBV polymerase (reverse transcriptase activity) in vitro
# Format: biochemical
# protocol.conditions: 0.01 μg/ml; read-out: Inhibitory activity of HBV-RT (%)
# binarize inhibition at 0.01 µg/mL: threshold 50% inclusive, high side TRUE, low side FALSE

These solved cases illustrate the format of a correct answer.
CCNc1cccnc1N1CCN(C(=O)c2ccc(C(=O)NCCN3CCOCC3)cn2)CC1 = FALSE
CC(C)Nc1cccnc1N1CCN(C(=O)c2ccc(C(=O)NCCc3c[nH]cn3)cn2)CC1 = TRUE
CC(C)CNc1cccnc1N1CCN(C(=O)c2ccc(C(=O)NCCCn3ccnc3)cn2)CC1 = TRUE
COc1ccc(NC(=O)c2ccc(C(=O)N3CCN(c4ncccc4NC(C)C)CC3)nc2)cn1 = TRUE

Is inhibition at 0.01 µg/mL at least 50%? Consider COCCCNC(=O)c1ccc(C(=O)N2CCN(CCO)CC2)nc1
FALSE

Tell me whether inhibition at 0.01 µg/mL is at least 50% here: Nc1cccnc1N1CCN(C(=O)c2ccc(C(=O)NC3CCOC3=O)cn2)CC1 (centres unmarked)
TRUE

Is inhibition at 0.01 µg/mL at least 50%? Consider CC(C)Nc1cccnc1N1CCN(C(=O)c2ccc(C(=O)NCCc3cccs3)cn2)CC1
FALSE

Check if inhibition at 0.01 µg/mL >= 50% (inclusive). Item: CC(C)Nc1cccnc1N1CCN(C(=O)c2ccc(C(=O)N[C@@H](C)CO)cn2)CC1
FALSE

====

# study.system: HIV reverse transcriptase (Human immunodeficiency virus type 1 group M subtype B, UniProt P04585)
# Construct: purchased Boehringer Mannheim
# procedure.summary: In vitro inhibition test against HIV reverse transcriptase
# Format: biochemical
# protocol.conditions: 0.1 μg/ml; read-out: Inhibitory activity of HIV-RT (%)
readout.type: inhibition at 0.1 µg/mL
Remember to follow the number with its unit.

Recorded inhibition at 0.1 µg/mL, per entry:
Nc1cccnc1N1CCN(C(=O)c2ccc(C(=O)NCc3ccccn3)cn2)CC1 = 53%
CC(C)CNC(=O)c1ccc(C(=O)N2CCN(c3ncccc3NC(C)C)CC2)nc1 = 32%
CC(C)Nc1cccnc1N1CCN(C(=O)c2ccc(C(=O)Nc3cnccn3)cn2)CC1 = 66%
CC(C)CNc1cccnc1N1CCN(C(=O)c2ccc(C(=O)NCCCn3ccnc3)cn2)CC1 = 50%
CCNc1cccnc1N1CCN(C(=O)c2ccc(C(=O)NCCN3CCOCC3)cn2)CC1 = 55%

In the following, a different molecule is considered.
Given CC[C@H](CO)NC(=O)c1ccc(C(=O)N2CCN(CCO)CC2)nc1 , state its recorded inhibition at 0.1 µg/mL.
30%

====

# study.system: HBV polymerase (Hepatitis B virus genotype D subtype ayw)
# Construct: made in house; host or cells: E. coli
# procedure.summary: Inhibitory activities against HBV polymerase (reverse transcriptase activity) in vitro
# Assay type: biochemical
# protocol.conditions: 0.1 μg/ml; read-out: Inhibitory activity of HBV-RT (%)
readout.type: inhibition at 0.1 µg/mL (%)
Express the result in % but write the number alone.

Past entries and their recorded results:
CC(C)Nc1cccnc1N1CCN(C(=O)c2ccc(C(=O)NCCCO)cn2)CC1 = 60
CC(C)Nc1cccnc1N1CCN(C(=O)c2ccc(C(=O)Nc3nncs3)cn2)CC1 = 47
Nc1cccnc1N1CCN(C(=O)c2ccc(C(=O)NCCO)cn2)CC1 = 67
CC(C)Nc1cccnc1N1CCN(C(=O)c2ccc(C(=O)N(C)CC3OCCO3)cn2)CC1 = 60
Cc1cc(NC(=O)c2ccc(C(=O)N3CCN(c4ncccc4NC(C)C)CC3)nc2)no1 = 50
COCCNC(=O)c1ccc(C(=O)N2CCN(c3ncccc3NCC(C)C)CC2)nc1 = 70
CC(C)Nc1cccnc1N1CCN(C(=O)c2ccc(C(=O)NC3CCOC3=O)cn2)CC1 (stereo not drawn) = 69
CC(C)CNc1cccnc1N1CCN(C(=O)c2ccc(C(=O)NC3CC3)cn2)CC1 = 71
CC(C)CNc1cccnc1N1CCN(C(=O)c2ccc(C(=O)NC(C)C)cn2)CC1 = 66
CC(C)Nc1cccnc1N1CCN(C(=O)c2ccc(C(=O)NCCO)cn2)CC1 = 51

Give the reported inhibition at 0.1 µg/mL for CC(C)(CO)NC(=O)c1ccc(C(=O)N2CCN(c3ncccc3N)CC2)nc1 (system: HBV polymerase (Hepatitis B virus genotype D subtype ayw)).
62

Form: Entry = CCNc1cccnc1N1CCN(C(=O)c2ccc(C(=O)NCCO)cn2)CC1 | System = HBV polymerase (Hepatitis B virus genotype D subtype ayw) | inhibition at 0.1 µg/mL = ____
69

Form field - read-out: inhibition at 0.1 µg/mL; system: HBV polymerase (Hepatitis B virus genotype D subtype ayw); submitted item: CC(C)CNC(=O)c1ccc(C(=O)N2CCN(c3ncccc3NC(C)C)CC2)nc1
65

Record lookup: for HBV polymerase (Hepatitis B virus genotype D subtype ayw), what inhibition at 0.1 µg/mL belongs to CC(C)Nc1cccnc1N1CCN(C(=O)c2ccc(C(=O)NCC3CCCO3)cn2)CC1 (stereo not drawn) ?
60

What inhibition at 0.1 µg/mL appears in the records for this molecule with HBV polymerase (Hepatitis B virus genotype D subtype ayw)? Cc1ncc(CO)c(CNC(=O)c2ccc(C(=O)N3CCN(c4ncccc4NC(C)C)CC3)nc2)c1O
58

====

# study.system: HIV reverse transcriptase (Human immunodeficiency virus type 1 group M subtype B, UniProt P04585)
# Construct: purchased Boehringer Mannheim
# procedure.summary: In vitro inhibition test against HIV reverse transcriptase
# Type: biochemical
# protocol.conditions: 0.1 μg/ml; read-out: Inhibitory activity of HIV-RT (%)
Respond with 1.0 for inhibition at 0.1 µg/mL values of 40% and above, 0.0 for values below.

Cc1csc(NC(=O)c2ccc(C(=O)N3CCN(c4ncccc4NC(C)C)CC3)nc2)n1 [Exam. 68] = 1.0
CC(C)CNc1cccnc1N1CCN(C(=O)c2ccc(C(=O)NC(C)(C)CO)cn2)CC1 [Exam. 23] = 1.0
CC(C)CNc1cccnc1N1CCN(C(=O)c2ccc(C(=O)NCCO)cn2)CC1 [Exam. 22] = 1.0

In plain terms: is recorded inhibition at 0.1 µg/mL at least 40% for O=C(NCCO)c1ccc(C(=O)N2CCN(CCO)CC2)nc1 [Exam. 93] ?
0.0

Decide: is the reported value of inhibition at 0.1 µg/mL for CC(C)Nc1cccnc1N1CCN(C(=O)c2ccc(C(=O)N(C)CC3OCCO3)cn2)CC1 [Exam. 52] equal to or greater than 40%?
1.0

Given the entry CC(C)NC(=O)c1ccc(C(=O)N2CCN(c3ncccc3NC(C)C)CC2)nc1 [Exam. 24] , answer whether its inhibition at 0.1 µg/mL meets or surpasses 40%.
0.0

Is reported inhibition at 0.1 µg/mL greater than or equal to 40% here: COCCNC(=O)c1ccc(C(=O)N2CCN(c3ncccc3NCC(C)C)CC2)nc1 [Exam. 41]
0.0
